Biological target: T1, HLA-DP2 (human, UniProt P20036 29-222; P04440 30-225)
T1 chain 1: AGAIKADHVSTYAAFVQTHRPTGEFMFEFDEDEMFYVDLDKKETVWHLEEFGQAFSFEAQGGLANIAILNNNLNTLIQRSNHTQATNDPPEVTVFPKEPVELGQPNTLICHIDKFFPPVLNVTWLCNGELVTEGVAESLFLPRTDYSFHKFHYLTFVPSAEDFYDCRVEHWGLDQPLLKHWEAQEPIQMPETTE
T1 chain 2: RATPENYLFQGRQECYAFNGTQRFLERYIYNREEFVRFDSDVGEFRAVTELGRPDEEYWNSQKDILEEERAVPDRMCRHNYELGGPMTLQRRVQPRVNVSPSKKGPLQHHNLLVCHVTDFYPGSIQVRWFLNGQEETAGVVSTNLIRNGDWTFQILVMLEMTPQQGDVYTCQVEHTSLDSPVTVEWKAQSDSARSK
Assay: competition
Property: IC50 (µM)
Numbers only, in µM.

Given item PGCNKRYFKLSHLQMHSRKHT [WT1328-348] , the value recorded as its IC50 is 8
